read-out: CD69, CD69 (gene 969); assay: BSK_SAg_CD69: BioMAP Diversity Plus: SAg Assay for CD69 Biomarker Activity (AID 2283089); conditions: primary human HUVEC with PBMC; actives raise or lower the signal
Activity calls are given as the source filed them. Rule for the calls: active = hit-call score of the fitted dose curve at least 0.9, where 1 is the maximum; inactive = score below 0.9.
Your response should consist of one outcome taken from t (active), f (inactive)

Exercise: Tell me the recorded outcome of this test for `CCCCCCOC(=O)c1ccccc1C(=O)OCCCCCC` .
Solution: f

Exercise: Please let me know the test result on file for `C=CC(N)=O` .
Solution: f

Exercise: Dear colleague, could you share the recorded outcome for `Cc1cccc([N+](=O)[O-])c1` when you have a moment?
Solution: f

Exercise: Answer briefly: the call reported for `ClC1=C(Cl)[C@]2(Cl)[C@@H]3[C@@H](Cl)[C@H]4O[C@H]4[C@@H]3C1(Cl)C2(Cl)Cl` in this assay.
Solution: f

Exercise: Recorded test outcome, item `CCOP(=S)(OCC)SCSC(C)(C)C`
Solution: f

Exercise: Record request — test call for `Sc1ccccc1`
Solution: f

Exercise: Which outcome was entered for the compound `COS(=O)(=O)OC` in this test?
Solution: f

Exercise: # outcome recorded in this test, key = `Clc1ccc(Cl)cc1`
Solution: f

Exercise: Which outcome did this test record for the compound `CCC(C)(CC)c1cc(NC(=O)c2c(OC)cccc2OC)on1` ?
Solution: f

Exercise: Just curious, what result did `CC(c1ccc(O)cc1)(c1ccc(O)cc1)c1ccc(O)cc1` get here?
Solution: t

Exercise: Which outcome did this test record for the compound `O=S(=O)(O)C(F)(F)C(F)(F)C(F)(F)C(F)(F)C(F)(F)C(F)(F)F` ?
Solution: f

Exercise: Check the results log: what was the call for `Nc1ccc(-c2ccc(N)cc2)cc1` ?
Solution: f

Exercise: Can you look up the reported call for `Cc1cc(-c2ccc(N)c(C)c2)ccc1N` for me?
Solution: f

Exercise: Per the records of this test, what outcome belongs to `C=CC(=O)NCNC(=O)C=C` ?
Solution: f

Exercise: I would be grateful if you could indicate the recorded call for `CC(C)(O)C(=O)Nc1ccc([N+](=O)[O-])c(C(F)(F)F)c1` .
Solution: f

Exercise: Please let me know the test result on file for `C[C@]12CCC(=O)C=C1CC[C@@H]1[C@@H]2CC[C@]2(C)C(=O)CC[C@@H]12` .
Solution: f

Exercise: Returns: the outcome recorded for `COc1ccc(O)c(C(C)(C)C)c1` in this assay.
Solution: f

Exercise: Recorded test call requested for `c1cc2ccc3cccc4ccc(c1)c2c34`
Solution: t

Exercise: Recorded test outcome, item `CCOCCOC(C)=O`
Solution: f

Exercise: Look up the recorded call for `CC(C)(c1ccccc1)c1ccc(O)cc1` in this test.
Solution: t
